target or test system: T1, recombinant human CD30 extra cellular domain (ECD) protein (human, UniProt P28908 19-379)
T1 construct: Bought from R&D systems; also called rhCD30; human CD30 ECD
T1 sequence: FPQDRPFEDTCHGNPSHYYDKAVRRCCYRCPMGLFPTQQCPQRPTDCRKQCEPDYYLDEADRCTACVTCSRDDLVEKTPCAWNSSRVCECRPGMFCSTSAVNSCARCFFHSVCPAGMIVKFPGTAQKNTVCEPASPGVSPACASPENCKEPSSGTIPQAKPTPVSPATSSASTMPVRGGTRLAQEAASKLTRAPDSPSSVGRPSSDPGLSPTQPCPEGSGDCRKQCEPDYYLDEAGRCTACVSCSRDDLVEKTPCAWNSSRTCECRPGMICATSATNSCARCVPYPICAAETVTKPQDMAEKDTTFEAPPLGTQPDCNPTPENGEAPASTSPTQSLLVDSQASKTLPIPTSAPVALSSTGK
method summary: SPR Biacore T200, His-tagged sdAb/Fab captured, 100.0 nM human CD30 as analyte, single curve
measurement label: koff (s⁻¹)

{"binder": "AS57911 human Fab (Fab, V domains shown, Human Fab from a synthetic human Fab library, crude protein from E. coli with 6xHistidine tag) VH: EVQLVESGGGLVQPGGSLRLSCAASGFNISSSYIHWVRQAPGKGLEWVAYISSYYSYTYYADSVKGRFTISADTSKNTAYLQMNSLRAEDTAVYYCARGYPYGMDYWGQGTLVTVSS VL: DIQMTQSPSSLSASVGDRVTITCRASQSVSSAVAWYQQKPGKAPKLLIYSASSLYSGVPSRFSGSRSGTDFTLTISSLQPEDFATYYCQQSHALITFGQGTKVEIK", "uom": "s⁻¹", "koff": 0.015}

I: AS48508 sdAb (VHH, Camel sdAb) VHH: EVQLVESGGGSVQAGGSLRLSCTASRFTFDGPDMAWYRQAPGNACELVSIISADGRTYYTDSVKGRFTISRDNAKNTVFLYLNSLQPEDTAVYYCAPDPRRNCRGGYCCGNWGPGTQVTVSS
II: AS47863 sdAb (VHH, Camel sdAb) VHH: QVQLEESGGGSVQAGETLRLSCTASGSTFGDSDMGWYRQAPGNACELVSIISSDGRTYYVDSVKGRFTISQDNAVSTVYLQMNSLKPEDTGVYYCAADLRQYCRDGRCCGYWGQGTQVTVSS
III: AS53574 sdAb (VHH, Camel sdAb) VHH: QVKLVESGGGSVQAGGSLRLSCAASGYIYSSNCMGWFRQAPGKEREWVARIHTGSGSTYYADSVKGRFTISQDNAKNTVYLQMNSLRPEDTAMYDCAAGRVVLGAVVCTNEYWGQGTQVTVSS
INPUT: Highest koff first, then in falling order down to the smallest. Field: ranking. Enter the labels in the order requested.
OUTPUT: I, II, III
